Target Or Test System: T1, DLG3_3, Q92796
T1 sequence (Q92796 374-475, limits assumed, looked up): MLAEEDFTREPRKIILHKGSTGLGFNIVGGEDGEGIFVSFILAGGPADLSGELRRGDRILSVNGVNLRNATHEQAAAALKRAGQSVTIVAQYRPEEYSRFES
Method Summary: holdup assay
Design: key: below the threshold = too weak to quantify, mostly under pKd 3.1 to 4
Applied Conditions: plain residues with an end cap or a label only (N-terminal biotin on a linker: ahx)
Measurement Kind: pKd

# Binder, Data Value
data = [
    ("SAPATLSSRA [PDLIM2, Q96JY6]", "below the threshold"),
    ("HSATSVHTSV [MTMR1, Q13613]", 3.68),
    ("YNSFLSVTTV [PDZRN3, Q9UPQ7]", 3.67),
    ("KEYDDELTFF [USH1C, Q9Y6N9]", "below the threshold"),
    ("AKPQPVDSWV [ARVCF, O00192]", "below the threshold"),
]

Exercise: Give the value of pKd reported for the following: VNENQKEYFF [CNTNAP4, Q9C0A0]
Solution: below the threshold

Exercise: Determine from records and report pKd for SKKNELFSNL [NHERF1, O14745]
Solution: below the threshold

Exercise: Provide measured pKd value, entry: KDECVIATEV [DLL1, O00548]
Solution: below the threshold

Exercise: Read off the recorded pKd for PKMKLNETSF [SHKBP1, Q8TBC3]
Solution: below the threshold

Exercise: Using the record for ADENEQVSAV [RAPGEF6, Q8TEU7] , state its measured pKd.
Solution: below the threshold

Data origin, for the record: paper PMC9482650
